The following compounds are listed with their measured DC50 values.
system name: HiBit-WIZ fusion protein (Homo sapiens, UniProt O95785+Q96SW2)
Sequence (O95785 whole entry, the tested form may be a part): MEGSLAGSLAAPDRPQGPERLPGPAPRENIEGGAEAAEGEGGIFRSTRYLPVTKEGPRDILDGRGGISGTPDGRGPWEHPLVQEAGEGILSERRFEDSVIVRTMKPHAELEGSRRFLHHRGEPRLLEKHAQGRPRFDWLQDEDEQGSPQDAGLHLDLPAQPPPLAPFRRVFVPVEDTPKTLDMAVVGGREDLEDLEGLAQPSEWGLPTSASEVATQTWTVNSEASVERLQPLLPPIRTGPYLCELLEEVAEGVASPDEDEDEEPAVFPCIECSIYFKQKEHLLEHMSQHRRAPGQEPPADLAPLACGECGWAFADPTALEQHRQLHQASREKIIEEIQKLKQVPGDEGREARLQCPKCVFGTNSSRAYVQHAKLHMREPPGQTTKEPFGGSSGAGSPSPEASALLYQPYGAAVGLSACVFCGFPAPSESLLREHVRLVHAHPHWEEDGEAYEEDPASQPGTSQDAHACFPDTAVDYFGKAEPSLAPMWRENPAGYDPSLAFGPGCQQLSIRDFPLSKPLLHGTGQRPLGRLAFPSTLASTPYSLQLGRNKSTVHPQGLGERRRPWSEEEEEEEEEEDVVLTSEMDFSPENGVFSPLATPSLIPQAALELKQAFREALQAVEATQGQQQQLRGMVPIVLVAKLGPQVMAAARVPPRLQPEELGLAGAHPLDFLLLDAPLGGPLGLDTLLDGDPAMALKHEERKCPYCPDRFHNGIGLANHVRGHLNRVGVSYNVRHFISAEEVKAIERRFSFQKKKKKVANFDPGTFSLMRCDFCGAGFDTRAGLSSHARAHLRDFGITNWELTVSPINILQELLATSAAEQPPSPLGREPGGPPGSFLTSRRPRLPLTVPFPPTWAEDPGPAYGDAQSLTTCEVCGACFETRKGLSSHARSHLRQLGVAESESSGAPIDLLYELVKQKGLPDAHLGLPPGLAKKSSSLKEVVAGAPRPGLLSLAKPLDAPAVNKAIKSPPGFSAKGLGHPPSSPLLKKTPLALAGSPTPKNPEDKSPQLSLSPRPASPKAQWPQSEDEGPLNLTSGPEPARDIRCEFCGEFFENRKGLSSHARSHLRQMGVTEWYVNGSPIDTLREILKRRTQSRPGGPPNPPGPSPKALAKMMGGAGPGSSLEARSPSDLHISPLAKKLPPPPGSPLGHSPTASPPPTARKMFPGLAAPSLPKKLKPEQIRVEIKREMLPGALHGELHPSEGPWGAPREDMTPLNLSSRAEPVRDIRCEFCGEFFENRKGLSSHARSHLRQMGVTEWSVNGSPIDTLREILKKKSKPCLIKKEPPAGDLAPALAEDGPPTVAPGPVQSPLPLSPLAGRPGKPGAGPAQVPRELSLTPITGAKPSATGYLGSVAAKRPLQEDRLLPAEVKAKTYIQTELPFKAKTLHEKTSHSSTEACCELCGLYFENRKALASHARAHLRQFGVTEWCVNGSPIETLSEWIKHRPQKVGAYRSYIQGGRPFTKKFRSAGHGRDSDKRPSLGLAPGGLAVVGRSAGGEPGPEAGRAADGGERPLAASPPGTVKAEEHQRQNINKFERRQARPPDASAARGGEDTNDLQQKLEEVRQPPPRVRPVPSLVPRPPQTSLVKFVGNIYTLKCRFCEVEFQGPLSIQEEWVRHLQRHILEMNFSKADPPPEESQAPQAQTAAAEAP
Sequence (Q96SW2 whole entry, the tested form may be a part): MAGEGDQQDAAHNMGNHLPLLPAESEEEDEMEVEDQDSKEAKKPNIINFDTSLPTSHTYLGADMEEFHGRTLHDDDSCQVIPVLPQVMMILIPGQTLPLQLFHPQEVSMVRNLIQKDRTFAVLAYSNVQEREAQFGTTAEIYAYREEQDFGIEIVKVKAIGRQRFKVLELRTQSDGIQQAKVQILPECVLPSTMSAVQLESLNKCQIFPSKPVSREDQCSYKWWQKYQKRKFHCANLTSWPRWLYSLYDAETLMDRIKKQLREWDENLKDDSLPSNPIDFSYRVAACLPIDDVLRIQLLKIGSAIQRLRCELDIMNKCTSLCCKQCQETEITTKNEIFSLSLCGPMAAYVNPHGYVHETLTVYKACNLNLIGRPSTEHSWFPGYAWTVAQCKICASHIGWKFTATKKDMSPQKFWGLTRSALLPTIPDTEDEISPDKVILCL
Sequence (Q16531 whole entry partner, the tested form may be a part): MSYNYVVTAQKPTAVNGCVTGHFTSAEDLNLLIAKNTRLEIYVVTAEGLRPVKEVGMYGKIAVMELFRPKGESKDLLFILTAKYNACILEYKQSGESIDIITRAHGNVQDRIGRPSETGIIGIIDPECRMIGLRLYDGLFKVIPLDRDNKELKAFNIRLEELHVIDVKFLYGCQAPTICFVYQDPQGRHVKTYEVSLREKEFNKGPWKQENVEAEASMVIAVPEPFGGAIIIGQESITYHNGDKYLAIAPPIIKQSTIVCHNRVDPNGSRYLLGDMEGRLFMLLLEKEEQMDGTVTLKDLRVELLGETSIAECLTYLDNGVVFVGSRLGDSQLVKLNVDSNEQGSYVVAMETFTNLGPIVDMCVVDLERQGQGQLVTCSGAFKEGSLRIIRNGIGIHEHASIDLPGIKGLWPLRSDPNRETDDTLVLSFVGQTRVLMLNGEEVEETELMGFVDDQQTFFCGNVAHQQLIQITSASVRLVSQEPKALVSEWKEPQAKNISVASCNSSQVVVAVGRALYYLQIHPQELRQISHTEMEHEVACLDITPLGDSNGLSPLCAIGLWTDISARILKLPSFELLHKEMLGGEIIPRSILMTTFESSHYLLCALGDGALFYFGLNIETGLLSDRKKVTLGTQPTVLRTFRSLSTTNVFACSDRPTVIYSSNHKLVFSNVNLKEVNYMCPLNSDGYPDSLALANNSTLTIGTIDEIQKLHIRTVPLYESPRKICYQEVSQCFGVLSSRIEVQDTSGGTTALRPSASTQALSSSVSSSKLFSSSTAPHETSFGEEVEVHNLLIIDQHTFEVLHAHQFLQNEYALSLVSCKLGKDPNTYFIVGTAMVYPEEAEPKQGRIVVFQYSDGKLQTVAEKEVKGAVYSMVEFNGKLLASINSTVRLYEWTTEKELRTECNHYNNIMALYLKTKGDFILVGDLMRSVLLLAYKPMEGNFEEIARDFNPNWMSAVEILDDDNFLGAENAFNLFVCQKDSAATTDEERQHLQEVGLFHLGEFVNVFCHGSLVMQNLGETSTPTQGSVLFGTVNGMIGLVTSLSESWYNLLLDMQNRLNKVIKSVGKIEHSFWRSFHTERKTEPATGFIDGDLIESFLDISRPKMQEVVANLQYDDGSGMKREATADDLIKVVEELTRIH
assay info: Quantification of WIZ protein levels in HiBit tag fusion protein assay (WIZ HiBit assay in 293T cells)
Type: cell-based
settings: WIZ HiBit assay in 293T cells; 10-point, 5-fold dose response, highest concentration 25 μM, about 18 hours; read-out: WIZ AC50
measured endpoint: DC50 (µM)

> print(dat)
                                    compound  output.unit  qualifier  measurement
 1  O=C1CCC(N2Cc3cc(OC[C@@H]4CCCCN4C(=O)CCc4c[nH]cn4)ccc3C2=O)C(=O)N1 (some centres unmarked) [Compound I-72gk]           µM          >           25
 2  CC(Oc1ccccc1Cl)C(=O)N1CCCC[C@H]1COc1ccc2c(c1)CN(C1CCC(=O)NC1=O)C2=O (some centres unmarked) [Compound I-72ag]           µM          >           25
 3  Cc1cc(CN2CCCC[C@H]2COc2ccc3c(c2)CN(C2CCC(=O)NC2=O)C3=O)no1 (some centres unmarked) [Compound I-50by]           µM          >           25
 4  O=C1CCC(N2Cc3cc(OC[C@@H]4CCCCN4Cc4ncccc4O)ccc3C2=O)C(=O)N1 (some centres unmarked) [Compound I-50dg]           µM          >           25
 5  CNc1ncccc1CN1CCCC[C@@H]1COc1ccc2c(c1)CN(C1CCC(=O)NC1=O)C2=O (some centres unmarked) [Compound I-50cj]           µM          =        0.757
 6  N#Cc1ccn2cc(CN3CCCC[C@@H]3COc3ccc4c(c3)CN(C3CCC(=O)NC3=O)C4=O)nc2c1 (some centres unmarked) [Compound I-50dt]           µM          =         2.74
 7  CCN1CCCC(C)(C)C1COc1ccc2c(c1)CN(C1CCC(=O)NC1=O)C2=O (single isomer, unassigned) [Compound I-17]           µM          >           25
 8  O=C1CCC(N2Cc3cc(OC[C@@H]4CCCCN4C(=O)c4cccc5cnccc45)ccc3C2=O)C(=O)N1 (some centres unmarked) [Compound I-72j]           µM          >           25
 9  CC(C)c1cc(C(=O)N2CCCC[C@H]2COc2ccc3c(c2)CN(C2CCC(=O)NC2=O)C3=O)on1 (some centres unmarked) [Compound I-72dp]           µM          >           25
10  CN(C)c1ncc(CN2CCCC[C@@H]2COc2ccc3c(c2)CN(C2CCC(=O)NC2=O)C3=O)cn1 (some centres unmarked) [Compound I-50ar]           µM          =         1.14
11  O=C1CCC(N2Cc3cc(OC[C@H]4CCCCN4Cc4ccc5c(c4)OCO5)ccc3C2=O)C(=O)N1 (some centres unmarked) [Compound I-137]           µM          =       0.0015
12  Cn1nc(CN2CCCC[C@@H]2COc2ccc3c(c2)CN(C2CCC(=O)NC2=O)C3=O)cc1-c1ccccc1 (some centres unmarked) [Compound I-50dm]           µM          =        0.007
13  O=C1CCC(N2Cc3cc(OC[C@H]4CCCCN4CC4CCN(Cc5ccccc5)CC4)ccc3C2=O)C(=O)N1 (some centres unmarked) [Compound I-50bg]           µM          =        0.031
14  O=C1CCC(N2Cc3cc(OC[C@H]4CCCCN4Cc4cncnc4)ccc3C2=O)C(=O)N1 (some centres unmarked) [Compound I-50ce]           µM          >           25
